This listing pairs binders with measured LoD (ng/ml) colourimetric detection.
# Assay Target: T1, full length human tau protein (2N4R, isoform Tau-F, 441 amino acids) (human, UniProt P10636 1-758)
# T1 construct: also called hT40; htau40
# T1 sequence (P10636 other isoform, or with tags, fused parts or gaps limits assumed): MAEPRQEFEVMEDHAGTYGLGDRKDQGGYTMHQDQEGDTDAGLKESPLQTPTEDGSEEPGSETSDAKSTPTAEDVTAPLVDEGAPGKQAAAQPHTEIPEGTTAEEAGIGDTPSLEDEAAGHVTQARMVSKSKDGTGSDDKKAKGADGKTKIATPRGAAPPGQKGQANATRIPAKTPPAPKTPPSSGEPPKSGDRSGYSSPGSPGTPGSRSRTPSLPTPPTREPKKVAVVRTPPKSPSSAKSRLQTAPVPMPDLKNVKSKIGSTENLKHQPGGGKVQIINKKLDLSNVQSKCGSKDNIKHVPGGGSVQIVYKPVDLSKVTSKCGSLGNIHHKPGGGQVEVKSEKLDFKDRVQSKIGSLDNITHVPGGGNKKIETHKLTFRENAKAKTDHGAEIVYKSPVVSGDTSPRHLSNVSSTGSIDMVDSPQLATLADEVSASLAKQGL
# Test Protocol: sandwich ELISA, S1D12 mAb capture, hT40 titrated, detection scAb at 10 ug/ml, colourimetric

S1G10 scAb (scFv, not shown: human C kappa domain and hexa-His tag of the scAb format) scFv: QVQLQESGPSLVKPSQTLSLTCTVSGFSLTSNSVGWVRQAPGKAPEWVAGIDTDGEEGYNPALNSRLSITRDTSKSQVSLSLSSVTSEDTAVYYCGRSYRADGLAYGYVQAIDYWGPGLLVTVSSEGKSSGASGESKVDDQAVLTQPSSMSGSLGQRVSITCSGSFIGISSVGWFQQLPGSGLRTIIVASDGRPSGVPDRFSMSKSGNTATLTISSLQAEDEADYFCGSSDRTQYTGVFGSGTRLTVLG
2 ng/mL
CA4 scAb (scFv, not shown: human C kappa domain and hexa-His tag of the scAb format) scFv: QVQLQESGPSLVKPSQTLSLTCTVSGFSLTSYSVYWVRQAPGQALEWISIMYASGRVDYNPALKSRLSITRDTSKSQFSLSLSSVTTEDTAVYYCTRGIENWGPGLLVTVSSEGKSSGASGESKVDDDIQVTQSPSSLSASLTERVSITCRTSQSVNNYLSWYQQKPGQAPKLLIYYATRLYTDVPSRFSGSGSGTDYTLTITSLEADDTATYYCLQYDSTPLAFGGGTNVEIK
6 ng/mL
412E10 scAb (scFv, not shown: human C kappa domain and hexa-His tag of the scAb format) scFv: QVQLQESGPSLVKPSQTLSLTCTVSGFSVISDSVAWVRQAPGKVPEWLGASGSSGNKYYNPALKSRLSITRDTSKSQVSLSLSSVTTEDTAVYYCARGIIAGVDVWGRGLLVTVSSEGKSSGASGESKVDDQAVLTQPSSVSGSLGQRVSITCSGSSSNVGYGNYVGWYQQVPGSAPKLLIYGTAIRASGVPDRFSGSRSGDTATLTITSLQAEDEADYYCASYQSNYAFFGSGTRLTVLG
20 ng/mL
S1G2 scAb (scFv, not shown: human C kappa domain and hexa-His tag of the scAb format) scFv: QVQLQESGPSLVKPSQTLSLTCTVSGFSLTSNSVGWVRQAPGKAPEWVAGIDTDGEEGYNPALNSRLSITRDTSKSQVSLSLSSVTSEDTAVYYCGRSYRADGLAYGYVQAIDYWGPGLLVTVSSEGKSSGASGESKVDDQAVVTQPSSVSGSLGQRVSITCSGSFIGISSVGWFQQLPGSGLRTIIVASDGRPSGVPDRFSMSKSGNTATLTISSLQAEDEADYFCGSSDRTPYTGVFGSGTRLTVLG
2 ng/mL
CB7 scAb (scFv, not shown: human C kappa domain and hexa-His tag of the scAb format) scFv: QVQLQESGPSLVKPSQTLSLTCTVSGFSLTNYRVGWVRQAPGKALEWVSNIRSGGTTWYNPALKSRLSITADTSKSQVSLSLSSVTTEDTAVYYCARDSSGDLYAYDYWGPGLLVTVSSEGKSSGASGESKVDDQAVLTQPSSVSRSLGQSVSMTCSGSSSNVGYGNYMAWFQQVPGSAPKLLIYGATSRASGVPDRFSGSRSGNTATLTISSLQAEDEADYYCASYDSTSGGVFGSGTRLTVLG
15 ng/mL

Proceeding to the next binder to report its LoD (ng/ml) colourimetric detection.
Given CC7 scAb (scFv, not shown: human C kappa domain and hexa-His tag of the scAb format) scFv: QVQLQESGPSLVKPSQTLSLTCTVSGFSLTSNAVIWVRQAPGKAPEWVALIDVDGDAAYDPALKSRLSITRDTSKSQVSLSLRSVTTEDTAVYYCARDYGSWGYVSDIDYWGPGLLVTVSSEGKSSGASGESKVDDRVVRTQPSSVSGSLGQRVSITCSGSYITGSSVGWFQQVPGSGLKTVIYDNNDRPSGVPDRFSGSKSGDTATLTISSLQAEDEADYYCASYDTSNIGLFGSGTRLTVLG , state its recorded LoD (ng/ml) colourimetric detection.
6 ng/mL
